test system: HCT-116 colon; experiment: NCI tumour cell line growth inhibition, 48 h; in the data active means GI50 below about 0.43 µM; inactive means the rest
Result category, one only: active, inactive

Known results for molecules:
Nc1cc(C(F)(F)F)c(-c2nc(N3CCOCC3)nc(N3CCOCC3)n2)cn1    inactive
COc1cc(/C=C/C(=O)c2nc3cc(F)ccc3nc2C)cc(OC)c1OC    inactive
O=C1C[C@@H]2OCC=C3C[N+]4([O-])CC[C@]56c7ccccc7N1[C@H]5[C@H]2[C@H]3C[C@@H]64 (stereo not given in full)    inactive
CCOC(=O)C#Cc1c(C(=O)OCC)nnn1[C@@H]1O[C@H](COC)[C@@H](OC)[C@H]1OC    inactive
OCc1ccc(N2CCc3ccc(F)cc3C2)cc1Cl    active

Prompt: Recorded call for `O=C1NC(=O)N(S(=O)(=O)c2cc(C(=O)Nc3ccc(Cl)cc3)c(Cl)cc2S)S(=O)(=O)N1` ?
Completion: inactive

Prompt: Please indicate how the test categorized `COc1ccccc1CNCCCN1C(=O)c2ccc3c4c(ccc(c24)C1=O)C(=O)N(CCCNCc1ccccc1OC)C3=O` .
Completion: active

Prompt: Dear colleague, could you share the recorded outcome for `CCOC(=O)c1c(Cl)c2c(n1Cc1ccccc1)-c1oncc1CCC2` when you have a moment?
Completion: inactive

Prompt: What is the recorded call for this molecule in the test? `c1cc(OCCCCCOc2cccc(-c3nc4ccccc4[nH]3)c2)cc(-c2nc3ccccc3[nH]2)c1`
Completion: inactive

Prompt: Hi team, can someone confirm the assay call for `CC[C@]12C=CCN3CC[C@@]4(c5ccc(OC)cc5N(C)[C@H]4[C@@](O)(C(=O)OC)[C@@H]1OC(=O)CCCN1CCN(CCCC(=O)O[C@@H]4[C@]5(CC)C=CCN6CC[C@@]7(c8ccc(OC)cc8N(C)[C@H]7[C@@]4(O)C(=O)OC)[C@@H]65)CC1)[C@@H]32` ?
Completion: active

Prompt: Per the assay record, what outcome was assigned to `CNCc1cccc2c1OCCOCCOCCNS(=O)(=O)c1ccc(cc1)-c1cnc(N)c(n1)C(=O)N2` ?
Completion: inactive

Prompt: Assay result, entry `CC(=O)O[C@H]([C@H](OC(C)=O)[C@H](C)OC(C)=O)[C@@H](/C=C/[C@H]1CC=CC(=O)O1)OC(C)=O` — outcome?
Completion: inactive

Prompt: I would be grateful if you could indicate the recorded call for `C=CCN(CC=C)Cc1c[nH]c2ccccc12` .
Completion: inactive

Prompt: State the result this test recorded for COC(=O)C(C)NP(=O)(OCc1cccc(Cn2cnc3c(N)ncnc32)c1)Oc1ccccc1 (stereo not given) .
Completion: inactive

Prompt: Please state the recorded outcome for this molecule: `N#C[Se]CCN1C(=O)c2ccccc2C1=O`
Completion: inactive
